Molecular target: DLL3 endogenously expressed on NCI-H82 cells (UniProt Q9NYJ7)
Sequence (Q9NYJ7 27-618): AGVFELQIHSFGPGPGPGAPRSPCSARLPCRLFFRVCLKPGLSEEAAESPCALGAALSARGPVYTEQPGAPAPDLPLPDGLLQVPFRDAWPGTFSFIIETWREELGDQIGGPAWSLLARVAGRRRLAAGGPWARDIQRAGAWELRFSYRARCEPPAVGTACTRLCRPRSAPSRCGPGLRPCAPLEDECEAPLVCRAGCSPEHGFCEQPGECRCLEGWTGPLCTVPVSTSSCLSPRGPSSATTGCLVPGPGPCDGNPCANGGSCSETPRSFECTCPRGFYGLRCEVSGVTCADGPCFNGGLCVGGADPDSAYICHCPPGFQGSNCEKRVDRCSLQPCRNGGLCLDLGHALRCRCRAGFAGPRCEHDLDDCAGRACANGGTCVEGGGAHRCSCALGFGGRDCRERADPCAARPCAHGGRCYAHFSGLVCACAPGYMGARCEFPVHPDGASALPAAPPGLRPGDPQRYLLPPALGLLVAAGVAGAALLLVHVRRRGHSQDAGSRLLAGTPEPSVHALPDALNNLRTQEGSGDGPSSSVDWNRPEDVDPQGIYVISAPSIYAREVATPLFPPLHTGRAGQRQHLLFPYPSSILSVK
Experiment: FACS on NCI-H82 cells; antibody 100 nM
MEASURED QUANTITY: MFI

- BINDER: "Hab015VL4VH5a-hFc (scFv, part only; not given: VL-VH linker and human IgG1 Fc, V domains shown, not shown: another chain or arm of the molecule; a dimerising Fc or GST; small tags and cut ends) VL: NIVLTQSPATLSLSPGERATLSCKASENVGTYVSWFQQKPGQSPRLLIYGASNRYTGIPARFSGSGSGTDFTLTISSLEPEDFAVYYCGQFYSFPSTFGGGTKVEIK VH: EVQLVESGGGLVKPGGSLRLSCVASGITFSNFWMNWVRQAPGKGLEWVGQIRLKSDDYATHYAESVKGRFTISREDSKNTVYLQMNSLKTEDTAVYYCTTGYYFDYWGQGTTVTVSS"
  MEASURED QUANTITY: "MFI"
  READOUT VALUE: 1510
- BINDER: "Hab008L1H5-hFc (scFv, part only; not given: VL-VH linker and human IgG1 Fc, V domains shown, not shown: another chain or arm of the molecule; a dimerising Fc or GST; small tags and cut ends) VL: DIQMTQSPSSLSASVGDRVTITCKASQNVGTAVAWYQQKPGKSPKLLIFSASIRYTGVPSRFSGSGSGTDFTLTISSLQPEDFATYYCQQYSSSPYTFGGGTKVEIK VH: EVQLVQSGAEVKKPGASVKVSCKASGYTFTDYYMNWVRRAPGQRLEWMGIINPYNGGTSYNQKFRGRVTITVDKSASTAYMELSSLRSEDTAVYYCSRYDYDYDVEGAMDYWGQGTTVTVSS"
  MEASURED QUANTITY: "MFI"
  READOUT VALUE: 1860
- BINDER: "Hab013VL2VH2a-hFc (scFv, part only; not given: scFv linker and human IgG1 Fc, V domains shown, not shown: another chain or arm of the molecule; a dimerising Fc or GST; small tags and cut ends) VL: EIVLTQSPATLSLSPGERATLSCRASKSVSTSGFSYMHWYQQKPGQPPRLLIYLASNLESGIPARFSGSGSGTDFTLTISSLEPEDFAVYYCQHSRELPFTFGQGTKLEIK VH: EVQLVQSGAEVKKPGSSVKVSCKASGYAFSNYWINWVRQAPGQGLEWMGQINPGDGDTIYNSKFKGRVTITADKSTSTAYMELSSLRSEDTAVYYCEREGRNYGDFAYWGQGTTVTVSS"
  MEASURED QUANTITY: "MFI"
  READOUT VALUE: 1520
